Molecular target: UniProt:Q9XUB2
Sequence (Q9XUB2 whole entry): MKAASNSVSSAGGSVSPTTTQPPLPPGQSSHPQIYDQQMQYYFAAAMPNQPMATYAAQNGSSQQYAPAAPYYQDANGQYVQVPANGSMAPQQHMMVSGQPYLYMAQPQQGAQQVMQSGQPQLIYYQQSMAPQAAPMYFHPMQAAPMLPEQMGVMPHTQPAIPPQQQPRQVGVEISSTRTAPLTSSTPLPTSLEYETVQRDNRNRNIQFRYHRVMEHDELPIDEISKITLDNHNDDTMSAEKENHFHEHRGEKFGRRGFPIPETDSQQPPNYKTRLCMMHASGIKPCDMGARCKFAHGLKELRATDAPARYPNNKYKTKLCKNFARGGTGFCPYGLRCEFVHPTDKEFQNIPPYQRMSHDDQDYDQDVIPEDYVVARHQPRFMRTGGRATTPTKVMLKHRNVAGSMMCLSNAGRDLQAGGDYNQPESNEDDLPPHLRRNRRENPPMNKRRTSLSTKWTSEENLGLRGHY
Assay: MEX-5/TCR-2 RNA interaction inhibitors, dose response, biochemical, C. elegans, fluorescence polarization (AID 1960)
The source made the active and inactive calls.
Each record here notes measured EC50.

COMPOUND: COc1ccc(N2C(=O)NC(=O)/C(=C\c3cn(CC(=O)N4CCOCC4)c4ccccc34)C2=O)c(OC)c1
EC50: > 300 µM (not active)

COMPOUND: COc1ccc(C2C(C#N)=C(/N=C/N3CCOCC3)OC3=C2C(=O)CC(C)(C)C3)cc1OC (stereo unspecified)
EC50: > 300 µM (not active)

COMPOUND: CCOc1ccc(/C=c2\sc3nc(-c4ccco4)nn3c2=O)cc1OCC
EC50: > 300 µM (not active)

COMPOUND: NC(=O)c1cccc(/N=C/c2cc(Cl)cc(Cl)c2O)c1
EC50: > 300 µM (not active)

COMPOUND: CCn1c(SCc2ccc(C)cc2)nnc1C1CCN(S(=O)(=O)c2ccc(OC)cc2)CC1
EC50: > 300 µM (not active)

COMPOUND: O=c1[nH]c(CN2CCc3ccccc3C2)nc2ccccc12
EC50: > 300 µM (not active)

COMPOUND: COC(=O)CCC(=O)OC1(C)C(=O)C=C2C=C(C3CC3)OC=C2C1=O (stereo unspecified)
EC50: 68.8 µM (inconclusive)

COMPOUND: Fc1ccc(NCc2cccnc2)cc1F
EC50: 11.2 µM (active)

COMPOUND: COc1cccc(N2C(=O)NC(=O)/C(=C/Nc3c(C)n(C)n(-c4ccccc4)c3=O)C2=O)c1
EC50: > 300 µM (not active)

COMPOUND: CCOC(=O)c1ccc(CC(=O)c2ccc(O)c(O)c2O)o1
EC50: 0.868 µM (active)

COMPOUND: C#CCOCCOCCOCCNc1nc(N2CCN(C(=O)[C@H]([C@@H](C)CC)n3cc([C@@H](N)CO)nn3)CC2)nc(N2CCN(C(=O)[C@H]([C@@H](C)CC)n3cc([C@@H](N)CC(C)C)nn3)CC2)n1
EC50: 18 µM (active)

====

# IC50 per record follows
biological target: Nuclear receptor subfamily 0 group B member 1 (Homo sapiens, UniProt P51843); assay: Luminescence-based cell-based high throughput dose response assay for inhibitors of the orphan nuclear receptor subfamily 0, group B, member 1 (DAX1; NR0B1). [Related pubchem assays (depositor defined):AID504766, AID504790]; format: functional
Sequence (P51843 whole entry): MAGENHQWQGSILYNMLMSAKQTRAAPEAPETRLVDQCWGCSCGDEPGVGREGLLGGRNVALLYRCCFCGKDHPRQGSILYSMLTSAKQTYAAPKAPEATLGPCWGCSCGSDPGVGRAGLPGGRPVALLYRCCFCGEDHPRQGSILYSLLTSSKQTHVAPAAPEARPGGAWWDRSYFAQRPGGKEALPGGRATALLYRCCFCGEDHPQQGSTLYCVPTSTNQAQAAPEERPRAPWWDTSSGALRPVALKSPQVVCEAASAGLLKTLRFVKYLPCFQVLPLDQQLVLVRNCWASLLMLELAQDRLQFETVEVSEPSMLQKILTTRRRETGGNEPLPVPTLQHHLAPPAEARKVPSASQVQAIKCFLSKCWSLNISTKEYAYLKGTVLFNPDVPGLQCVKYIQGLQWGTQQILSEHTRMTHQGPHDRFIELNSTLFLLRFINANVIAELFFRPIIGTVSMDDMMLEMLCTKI
Activity calls are given as the source filed them.
PROPERTY: IC50

COMPOUND: Cn1c(-c2ccccc2)c(/C=N/NC(=O)c2ccc(O)cc2)c2ccccc21
RESULT: > 67.5 µM (inactive)
--
COMPOUND: O=C(CN1C(=O)NC2(CCCC2)C1=O)NCC1CCCO1 (centres undefined)
RESULT: > 67.5 µM (inactive)
--
COMPOUND: O=C(CSc1nnc(Cc2cc(O)nc(O)n2)n1-c1ccc(F)cc1)N1CCCCC1
RESULT: > 67.6 µM (inactive)
--
COMPOUND: COc1ccccc1N1CCN(S(=O)(=O)c2cc(C(F)(F)F)cc(C(F)(F)F)c2)CC1
RESULT: > 67.5 µM (inactive)

====

Listed here are compounds together with their documented IC50.
molecular target: Trace amine-associated receptor 1 (Homo sapiens, UniProt Q96RJ0); experiment: Counterscreen for agonists of the human trace amine associated receptor 1 (hTAAR1): Fluorescence-based cell-based high throughput dose response assay to identify hTAAR1 agonist that also desensitize TAAR1 receptor response.; format: functional;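 note: inhibition of calcium response to PEA at EC80 in Galpha16 coupled cells measured by Fluo-8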
Sequence (Q96RJ0 whole entry): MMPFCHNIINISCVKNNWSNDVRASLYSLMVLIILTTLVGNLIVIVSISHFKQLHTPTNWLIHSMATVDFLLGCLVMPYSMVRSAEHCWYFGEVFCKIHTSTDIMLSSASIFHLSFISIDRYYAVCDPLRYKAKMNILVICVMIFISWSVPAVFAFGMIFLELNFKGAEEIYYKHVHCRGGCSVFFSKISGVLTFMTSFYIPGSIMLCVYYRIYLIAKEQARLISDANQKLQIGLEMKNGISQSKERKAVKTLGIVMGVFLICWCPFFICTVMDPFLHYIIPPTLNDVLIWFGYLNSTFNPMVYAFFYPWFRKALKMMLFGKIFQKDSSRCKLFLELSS
Activity calls are given as the source filed them.
PROPERTY: IC50

COMPOUND: Nc1nc(Nc2ccccc2)nc2ccccc12
RESULT: 0.444 µM (active)
//
COMPOUND: O=C(NCC1CCCO1)c1ccc(NC(=O)c2ccc(Br)cc2)cc1 (centres undefined)
RESULT: > 29.9 µM (inactive)
//
COMPOUND: O=C(O)/C=C/C(=O)NCCc1cccc(Cl)c1
RESULT: 3.77 µM (active)
//
COMPOUND: O=C(CC1Nc2ccccc2NC1=O)NCCc1ccccc1 (centres undefined)
RESULT: 7.18 µM (active)

====

Each entry below carries its recorded IC50.
molecular target: High affinity choline transporter 1 (Homo sapiens); assay: CHT inhibitors, dose response, cell-based, 5-point CRC, membrane potential dye (AID 504840); format: functional
Sequence (Q9GZV3 whole entry): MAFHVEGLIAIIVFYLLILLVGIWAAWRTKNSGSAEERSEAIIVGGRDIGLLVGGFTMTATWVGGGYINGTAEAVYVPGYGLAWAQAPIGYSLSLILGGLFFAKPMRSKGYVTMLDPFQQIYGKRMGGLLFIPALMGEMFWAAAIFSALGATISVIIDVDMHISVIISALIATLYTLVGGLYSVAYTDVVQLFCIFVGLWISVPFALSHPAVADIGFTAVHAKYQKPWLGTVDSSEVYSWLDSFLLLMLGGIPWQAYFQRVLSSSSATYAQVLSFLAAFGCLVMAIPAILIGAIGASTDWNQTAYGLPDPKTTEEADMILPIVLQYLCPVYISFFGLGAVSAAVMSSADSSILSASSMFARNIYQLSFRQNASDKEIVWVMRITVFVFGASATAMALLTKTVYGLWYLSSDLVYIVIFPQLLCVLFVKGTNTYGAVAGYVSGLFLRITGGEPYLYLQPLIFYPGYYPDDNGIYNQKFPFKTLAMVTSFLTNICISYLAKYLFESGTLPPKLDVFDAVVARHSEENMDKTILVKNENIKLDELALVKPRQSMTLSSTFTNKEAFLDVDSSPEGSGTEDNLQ
The source made the active and inactive calls.

MOLECULE: COc1cccc(OC)c1OCCCCCc1c(C)n[nH]c1C
IC50: 9.12 µM (active)
--
MOLECULE: S=C(NCCCN1CCOCC1)Nc1cccc(-c2nnc3n2CCCCC3)c1
IC50: 13.9 µM (active)
--
MOLECULE: CCN1CCN(c2cc(C)c3cc(NC(=S)N4CCOCC4)ccc3n2)CC1
IC50: 12.6 µM (active)
--
MOLECULE: CC(C)=CCN1CCN(Cc2cn(C(C)C)c3ccccc23)CC1CCO (configuration not stated)
IC50: 13.2 µM (active)
--
MOLECULE: CCn1nc(C)cc1-c1nnc(Sc2ncc([N+](=O)[O-])s2)n1C
IC50: 8.13 µM (active)
--
MOLECULE: CCOC(=O)c1sc(NC(=O)CCN2CCN(C)CC2)c(C(=O)OCC)c1C
IC50: 14.5 µM (active)
--
MOLECULE: CC1CCN(S(=O)(=O)c2ccc3c(c2)N(CC(=O)NCCN2C(C)CCCC2C)C(=O)CS3)CC1 (configuration not stated)
IC50: 11.3 µM (active)

====

AC50 values, listed per item
target: UniProt:P08684
Sequence (P08684 whole entry): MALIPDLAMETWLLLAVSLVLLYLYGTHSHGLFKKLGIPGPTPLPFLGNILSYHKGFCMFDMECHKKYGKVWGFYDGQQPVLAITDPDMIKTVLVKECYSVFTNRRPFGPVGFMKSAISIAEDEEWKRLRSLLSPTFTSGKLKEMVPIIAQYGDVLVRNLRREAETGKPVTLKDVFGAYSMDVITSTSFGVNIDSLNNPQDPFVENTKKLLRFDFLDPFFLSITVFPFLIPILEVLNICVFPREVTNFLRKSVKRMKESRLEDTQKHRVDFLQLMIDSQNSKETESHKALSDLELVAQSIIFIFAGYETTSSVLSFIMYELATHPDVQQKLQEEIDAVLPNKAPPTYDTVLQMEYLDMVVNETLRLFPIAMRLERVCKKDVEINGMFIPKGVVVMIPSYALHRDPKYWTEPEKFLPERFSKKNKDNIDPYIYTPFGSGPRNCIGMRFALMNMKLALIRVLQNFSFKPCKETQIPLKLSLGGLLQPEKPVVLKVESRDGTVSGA
PROPERTY: AC50

COMPOUND: COC(=O)[C@H]1C[C@@H]1[C@H](NC(=O)c1cnccn1)c1ccccc1
SUBJECT OF TEST: UniProt:P08684
RESULT: 7.94 µM (inconclusive)

COMPOUND: CSc1ccc(Cl)c(C(=O)NCCOc2cc(C)ccc2C(C)C)c1
SUBJECT OF TEST: UniProt:P08684
RESULT: 1 µM (inconclusive)

COMPOUND: CNC(=O)/C=C1\NC(C)(C)Cc2c1ccc1ccccc21
SUBJECT OF TEST: UniProt:P08684
RESULT: 15.8 µM (inconclusive)

COMPOUND: Cc1cc(OCC(=O)OC(C)C)c2c3c(c(=O)oc2c1)CCCC3
SUBJECT OF TEST: UniProt:P08684
RESULT: 28.2 µM (inconclusive)

COMPOUND: O=C(c1ccccc1)[C@H]1[C@H](c2ccccc2[N+](=O)[O-])N1C1CCCCC1 (stereo partly drawn)
SUBJECT OF TEST: UniProt:P08684
RESULT: 3.98 µM (inconclusive)

COMPOUND: COc1ncc2nc(-c3cc(F)cc(F)c3)c(=O)n(CCC#N)c2n1
SUBJECT OF TEST: UniProt:P08684
RESULT: 20 µM (inconclusive)

COMPOUND: COc1ccc(-c2cc(C(F)(F)F)n3nc(C(=O)NCc4ccco4)c(Cl)c3n2)cc1
SUBJECT OF TEST: UniProt:P08684
RESULT: 3.16 µM (inconclusive)

COMPOUND: C=CC[n+]1c(-c2ccc(C)cc2)csc1NNC(=O)Nc1ccccc1
SUBJECT OF TEST: UniProt:P08684
RESULT: 3.55 µM (inconclusive)

COMPOUND: CS(=O)(=O)N1CCC2(CCCN(c3ccccn3)C2)CC1
SUBJECT OF TEST: UniProt:P08684
RESULT: 15.8 µM (inconclusive)

COMPOUND: O=C(c1c(O)nc2cc(Cl)ccc2c1O)C1CC1
SUBJECT OF TEST: UniProt:P08684
RESULT: 0.00316 µM (inconclusive)

COMPOUND: COc1cccc(Nc2ncc3nc(-c4ccc(Cl)cc4)c(=O)n(C[C@H]4CCCO4)c3n2)c1
SUBJECT OF TEST: UniProt:P08684
RESULT: 15.8 µM (inconclusive)

COMPOUND: C/C(=C\C(=O)c1ccc(Cl)cc1)NCc1ccc2c(c1)OCO2
SUBJECT OF TEST: UniProt:P08684
RESULT: 0.794 µM (inconclusive)

COMPOUND: O=[N+]([O-])c1ccc2c(/N=N\c3ccc4ccccc4c3O)c(O)cc(S(=O)(=O)O)c2c1
SUBJECT OF TEST: UniProt:P08684
RESULT: 3.98 µM (inconclusive)

COMPOUND: N#CCCSC(=S)[C@H]1CCCC1=N
SUBJECT OF TEST: UniProt:P08684
RESULT: 2.51 µM (inconclusive)

COMPOUND: O=C1c2ccccc2CC[C@H]1CNCCc1ccc(O)cc1
SUBJECT OF TEST: UniProt:P08684
RESULT: 7.94 µM (inconclusive)

COMPOUND: CN1CCN(c2ncc3nc(-c4cn(C)c5ccccc45)c(=O)n(CCC#N)c3n2)CC1
SUBJECT OF TEST: UniProt:P08684
RESULT: 25.1 µM (inconclusive)

COMPOUND: CCOC(=O)C1CCCN(C(=O)CCn2nc(-c3ccccc3)ccc2=O)C1 (stereo not drawn)
SUBJECT OF TEST: UniProt:P08684
RESULT: 17.8 µM (inconclusive)

COMPOUND: NC(=Nc1ccccc1)NC(=O)c1nc(Cl)c(N)nc1N [PHENAMIL METHANESULFONATE]
SUBJECT OF TEST: UniProt:P08684
RESULT: 39.8 µM (inconclusive)

Each recorded value in this set is attributed to ChEMBL document CHEMBL1201862.
